Reported melting point values for the following molecules.

molecule="O=C1CSC(c2c[n+]([O-])c3ccccc3[n+]2[O-])N1c1ccc(F)cc1 (centres unmarked) [2d]" test_readout="melting point" result="240 to 242 °C"
molecule="Cc1ccc2c(c1)[n+]([O-])c(C1SCC(=O)N1c1ccc(F)cc1)c[n+]2[O-] (centres unmarked) [2j]" test_readout="melting point" result="243 to 245 °C"
molecule="COc1ccc2c(c1)[n+]([O-])c(C1SCC(=O)N1c1ccccc1)c[n+]2[O-] (centres unmarked) [2l]" test_readout="melting point" result="254 to 258 °C"

Asked: Could you tell me which melting point is on file for O=C1CSC(c2c[n+]([O-])c3ccc(F)cc3[n+]2[O-])N1c1ccc(Cl)cc1 (centres unmarked) [2u] ?
Given back: 249 to 252 °C

====

# Test system: TB-infected macrophage model
# Assay comment: Macrophage assay (TB-infected macrophage model)
# Type: cell-based, Mycobacterium tuberculosis
# Experimental context: concentration causing 99% reduction in residual mycobacterial growth after 7 days
Reported EC99 values for the following compounds.
Unit µg/mL implied. Number only.

Solved cases below.
compound="O=C1CSC(c2c[n+]([O-])c3ccc(F)cc3[n+]2[O-])N1c1ccc(Cl)cc1 (stereo not shown)" tested_system="TB-infected macrophage model" test_readout=EC99 measured_number=3.27
compound="O=C1CSC(c2c[n+]([O-])c3ccc(Cl)cc3[n+]2[O-])N1c1ccc(Cl)cc1 (stereo not shown)" tested_system="TB-infected macrophage model" test_readout=EC99 measured_number=3.93
compound="O=C1CSC(c2c[n+]([O-])c3ccc(F)cc3[n+]2[O-])N1c1ccc(F)cc1 (stereo not shown)" tested_system="TB-infected macrophage model" test_readout=EC99 measured_number=5.25

Next:
Asked: Could you tell me which EC99 is on file for O=C1CSC(c2c[n+]([O-])c3ccc(Cl)cc3[n+]2[O-])N1c1ccc(F)cc1 (stereo not shown) ?
Given back: 4.58

====

Reported MIC values for the following compounds.
# Test system: Mtb H37Rv (ATCC27294)
# Assay comment: Antimycobacterial activity, microplate Alamar blue assay (MABA)
# Assay type: cell-based, Mycobacterium tuberculosis
# Experimental context: Mycobacterium tuberculosis, Mtb H37Rv, repeated in Table 5 for the 3D-QSAR models; read-out: MIC
Unit µg/mL implied. Number only.

compound="O=C1CSC(c2c[n+]([O-])c3ccc(Cl)cc3[n+]2[O-])N1c1ccc(F)cc1 (stereo not drawn) [2y]" endpoint_unit=µg/mL measured_number=1.56
compound="COc1ccc(N2C(=O)CSC2c2c[n+]([O-])c3ccc(C)cc3[n+]2[O-])cc1 (stereo not drawn) [2i]" endpoint_unit=µg/mL measured_number=50

Asked: Checklist item: MIC tested on Mtb H37Rv (ATCC27294), entry Cc1ccc2c(c1)[n+]([O-])c(C1SCC(=O)N1c1ccc(Cl)cc1)c[n+]2[O-] (stereo not drawn) [2k] , value?
Given back: 3.13

====

Reported MIC values for the following molecules.
# Tested on: Mtb H37Rv (ATCC27294)
# Assay comment: Antimycobacterial activity, microplate Alamar blue assay (MABA)
# Assay type: cell-based, Mycobacterium tuberculosis
# Experimental context: Mycobacterium tuberculosis, Mtb H37Rv, repeated in Table 5 for the 3D-QSAR models; read-out: MIC
Unit µg/mL implied. Number only.

Solved cases below.
molecule="COc1ccc(N2C(=O)CSC2c2c[n+]([O-])c3ccc(OC)cc3[n+]2[O-])cc1 (stereo not drawn) [2n]" test_readout=MIC measured_number=200
molecule="O=C1CSC(c2c[n+]([O-])c3ccc(F)cc3[n+]2[O-])N1c1ccc(Cl)cc1 (stereo not drawn) [2u]" test_readout=MIC measured_number=1.56
molecule="COc1ccc(N2C(=O)CSC2c2c[n+]([O-])c3ccc(F)cc3[n+]2[O-])cc1 (stereo not drawn) [2s]" test_readout=MIC measured_number=25

Next:
Asked: Could you tell me which MIC is on file for Cc1ccc2c(c1)[n+]([O-])c(C1SCC(=O)N1c1ccccc1)c[n+]2[O-] (stereo not drawn) [2g] ?
Given back: 12.5
